# ASSAY SUMMARY: MTT assay, (photo)cytotoxicity toward HEK-293 cells
# Type: cell-based
# CONDITIONS: human, HEK-293 cells, ICPrc‐Bn (200 µM) alone for 4 h, subsequently irradiated, read-out: cell viability
READOUT TYPE: viability at 4 h, 200 µM

Recorded viability at 4 h, 200 µM of [C-]#[N+]CCCOC(=O)NCc1ccccc1 [ICPrc‐Bn, 3‐isocyanopropyl benzylcarbamate, reference compound] , please.
> 98%

###

# ASSAY SUMMARY: MTT assay, (photo)cytotoxicity toward HeLa cells
# Type: cell-based
# CONDITIONS: human, HeLa cells, ICPrc‐Dox (10 or 50 µM) alone, dark and irradiation, read-out: cell viability
READOUT TYPE: viability at 4 h

Using the record for [C-]#[N+]CCCOC(=O)NC1CC(OC2CC(O)(C(=O)CO)Cc3c(O)c4c(c(O)c32)C(=O)c2c(OC)cccc2C4=O)OC(C)C1O (stereo not shown) [ICPrc‐Dox, reference compound] , report its viability at 4 h.
> 98%
